- test.protocol: in vitro
- assay.setup: African green monkey
Ends that are not written are not given here.
measured.endpoint: CC50 (µg/mL)

[[record]]
substance = "VRLIVAVRIWRR-NH2 [IDR-1018]"
experimental_result = 686


---

- test.protocol: in vitro
- assay.setup: African green monkey
Square brackets hold non-standard residues; d marks the D form. Peptide text beside a SMILES is read from it.
Recorded CC50, one value per entry.
measured.endpoint: CC50 (µg/mL)

[[record]]
compound = "CC[C@@H](C)[C@@H](NC(=O)[C@@H](C)NC(=O)[C@@H](CCCNC(=N)N)NC(=O)[C@@H](Cc1c[nH]c2ccccc12)NC(=O)[C@@H](CCC(N)=O)NC(=O)[C@H](N)C(C)C)C(=O)N[C@H](CCCNC(=N)N)C(=O)N[C@@H](C(=O)N[C@H](CCCNC(=N)N)C(=O)N[C@@H](C(=O)N[C@@H](C(=O)N[C@H](CCCNC(=N)N)C(N)=O)[C@H](C)CC)C(C)C)C(C)C [DJK-5, vqwrairvrvir-NH2] (H-[dV][dQ][dW][dR][dA][dI][dR][dV][dR][dV][dI][dR]-NH2)"
unit_annotation = "µg/mL"
experimental_result = 517

[[record]]
compound = "CC[C@@H](C)[C@@H](NC(=O)[C@@H](CCCCN)NC(=O)[C@@H](CC(C)C)NC(=O)[C@H](N)C(C)C)C(=O)N[C@H](CCCCN)C(=O)N[C@@H](C(=O)N[C@H](CCCCN)C(=O)N[C@@H](C(=O)N[C@H](Cc1c[nH]c2ccccc12)C(=O)N[C@@H](C(=O)N[C@@H](C(=O)N[C@H](CCCCN)C(N)=O)C(C)C)C(C)C)[C@H](C)CC)C(C)C [D-3007, vlkikvkiwvvk-NH2] (H-[dV][dL][dK][dI][dK][dV][dK][dI][dW][dV][dV][dK]-NH2)"
unit_annotation = "µg/mL"
experimental_result = 708

[[record]]
compound = "CC[C@@H](C)[C@@H](N)C(=O)N[C@H](Cc1c[nH]c2ccccc12)C(=O)N[C@H](CC(C)C)C(=O)N[C@H](CCCNC(=N)N)C(=O)N[C@H](CC(C)C)C(=O)N[C@H](CCCCN)C(=O)N[C@@H](C(=O)N[C@@H](C(=O)N[C@H](CC(C)C)C(=O)N[C@H](CCCCN)C(=O)N[C@H](CCCNC(=N)N)C(=O)N[C@H](CCCCN)C(N)=O)C(C)C)C(C)C [D-3006, iwlrlkvvlkrk-NH2] (H-[dI][dW][dL][dR][dL][dK][dV][dV][dL][dK][dR][dK]-NH2)"
unit_annotation = "µg/mL"
experimental_result = 430

